# System: SK-MEL-2 melanoma
# protocol.text: NCI-60 one-dose screen, 48 h (100 = growth as untreated, 0 = no growth, -100 = all killed)
# condition.summary: 10 µM unless noted
About 83,000 compounds went through this panel and 20% of them were active in at least one assay; those are over-represented in the sample as a whole.
For each record, check the reported growth: if it is below 40% write True, else write False.

COc1cc(-c2cc(-c3ccc(Nc4ncnc5cc(Cl)ccc45)cc3)nc(N3CCN(C)CC3)n2)cc(OC)c1OC	False
CCCCCCOC(=O)CC1=C(C)/C(=C/c2[nH]c(-c3ccc[nH]3)cc2OC)N=C1C	True
N#Cc1nc(-c2ccc(F)cc2)oc1S(=O)(=O)N1CCN(c2ccc(F)cc2)CC1	False

Consider now this further molecule.
(Q) Take the molecule `Cc1ncc(C(=O)Nc2ccc(CN3CCN(C)CC3)c(C(F)(F)F)c2)cc1C#Cc1cnc(N)c2cnccc12` and say whether its growth is less than 40%.
(A) True

---

# Test system: HOP-62 NSCLC
# protocol.text: NCI-60 one-dose screen, 48 h (100 = growth as untreated, 0 = no growth, -100 = all killed)
# condition.summary: 10 µM unless noted
This is part of a sample that, as a whole, favours compounds with a hit. Of some 83,000 tested, about 20% had one in any assay.
Classes are defined on growth with ranges small value = under 30%, mid value = from 30% up to 80%, large value = 80% and over

COc1ccc2nc3ccccc3c(NCc3ccc(F)cc3)c2c1	small value
NC(=S)N/N=C/c1cn(-c2ccccc2)nc1-c1cc2ccccc2oc1=O	mid value
CN1CCN(C(=O)c2cc(-c3ccc4ncnc(N5CCc6cc(F)c(Cl)cc65)c4c3)cnc2N)CC1	small value
COc1cc(C2C3=C(COC3=O)N(CCO)c3cc4c(cc32)OCCO4)cc(OC)c1OC (centres undefined)	small value
Cn1cc(-c2csc(-c3cn(C(=O)OC(C)(C)C)c4ccccc34)n2)c2ccnc(Cl)c21	mid value
O=C(CCCCl)NNc1nccc(Nc2ccc(S(=O)(=O)Nc3ccncc3)cc2)n1	large value
Cc1ccc(-c2nc(C#N)c(S(=O)(=O)NCCO)o2)cc1	large value

Now for another entry.
(Q) Which band does `COc1ccc(/C=C/C(=O)c2cc3c(N)c(C(=O)Nc4ccc(OC)cc4)sc3nc2C)cc1` fall in?
(A) mid value

---

# System: OVCAR-4 ovarian
# protocol.text: NCI-60 one-dose screen, 48 h
# condition.summary: 10 µM unless noted
About 83,000 compounds went through this panel and 20% of them were active in at least one assay; those are over-represented in the sample as a whole. The source made the active and inactive calls. Rule for the calls: active = growth percent below 10; inactive = the rest.
Give your call using only these classes: TRUE (active), FALSE (inactive)

COc1cc2nc(Nc3cccc(F)c3)nc(Nc3cc(C)[nH]n3)c2cc1OC	TRUE
CCN(CC)CCCC(C)Nc1ccc2cc(OC)ccc2n1 (centres undefined)	FALSE
C=C(CN1CC=CCC1)[C@@H]1CC[C@]2(CO)CC[C@]3(C)[C@H](CC[C@@H]4[C@@]5(C)CC[C@H](O)C(C)(C)[C@@H]5CC[C@]43C)[C@@H]12	FALSE
CC(=O)Nc1c(Cl)cc(Cl)c2c1Cc1cc([N+](=O)[O-])ccc1-2	TRUE
COC(=O)/C=C1/SC(=Nc2cccc(Cl)c2)N(CCc2c[nH]c3ccc(O)cc23)C1=O	FALSE

(Q) Please indicate how the test categorized `CN(C)c1ccc(-c2cc(-c3ccc(Nc4nc(Nc5ccc(Cl)cc5)nc(Nc5ccc(Cl)cc5)n4)cc3)nc(N)c2C#N)cc1` .
(A) FALSE

(Q) State the result this test recorded for `COC(=O)Cc1nc(C#N)c(N(C)C)o1` .
(A) FALSE

(Q) So what was the verdict on C=CC1(C)C(O[Si](C)(C)C(C)(C)C)CC2C3OC(=O)NC31c1cccc3c1[C@H](C(=O)N3C)C2(C)C (some centres undefined) in this test?
(A) FALSE

(Q) Tell me the recorded outcome of this test for O=C1CCC(C(=O)NN(c2ccccc2)c2ccccc2)N1 (centres undefined) .
(A) FALSE
